B1: TPR t1 (parent)
chain: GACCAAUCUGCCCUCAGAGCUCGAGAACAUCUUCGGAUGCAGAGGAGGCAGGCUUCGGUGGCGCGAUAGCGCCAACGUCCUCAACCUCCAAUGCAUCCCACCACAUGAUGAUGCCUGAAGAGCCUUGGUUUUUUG

Variants of: B1
test.summary: polymerase ribozyme fitness, log enrichment relative to wild type (log ratio); higher = more active; in vitro selection for triplet polymerase activity

{"columns": ["mutation.descriptor", "polymerase ribozyme fitness (log ratio)"],
 "data": [
  ["G45C G69C U133A", -2.27],
  ["C85A A95U A100U", -3.28],
  ["G10A G71C", -0.717],
  ["C28U U125A", -2.25],
  ["U116A C124A", 0.141],
  ["G25C C70A", -7.32],
  ["C20G A50C", -6.14],
  ["A27G G128C", -4.95],
  ["C28U A105U U112C", -4.9],
  ["A29U U59G G120C", -1.14],
  ["G60C U106G", -3.41],
  ["C4A A121U U129G", 0.901],
  ["U7C A100U", -0.808],
  ["C4U A41U G44A G45A C53U G63C", -6.08],
  ["C4A G48U G120U", -3.84],
  ["C11A C40G", -3.12],
  ["G36U G61A G117U", -5.19],
  ["C40G C80U G122U", -3.37],
  ["A16C U112C", -0.921],
  ["G71U A74G", -5.51],
  ["C62A A121U", 1.32],
  ["C28G U32C A91U C114U A119G", -6.71],
  ["G19C C22U A46C G61U", -5.14],
  ["C28U G39A G45A G120A", -2.28],
  ["G71U C89A", -2.47],
  ["A43U C56G C64U", -2.1],
  ["G93C U106C U112C", 0.785],
  ["C11U A46C G51U C86G C102A", -8.49],
  ["A5C C56A C80A", -3.29],
  ["G36C A50C G52A", -4.73],
  ["U55C C62G G128U", -4.02],
  ["C56U C62U C101G U133A", -3.24],
  ["G128U U129C", -0.805],
  ["G77A A83U U87C C104U A105C", -5.02],
  ["C70U U78C U129A", -1.77],
  ["C72U C101G G117U", -3.6],
  ["U32C A84U", -0.174],
  ["C28G G44A A46G A90C", -4.5],
  ["C3A U9A G52U C88G A91C G127U", -1.59],
  ["U81A A90U", -2.41],
  ["G44A C94U U126G", -2.82],
  ["A37U C115A", -0.816],
  ["C12A C99U C123U U129G", -3.57],
  ["A27G U54C C80U A84U", -2.61],
  ["C20U G77U A91G", -5.11],
  ["C3A C99U", -3.8],
  ["C89U C115A", 0.206],
  ["C3U U78C A105C C124U", -1.78],
  ["G44U C53G G61C G93A", -2.01],
  ["A95U C114A", -1.43],
  ["U9G C40G C94U C123A U125A", -0.873],
  ["U21A G23U G42C A68G C94A U112A", -6.75],
  ["A37U G93U", -1.86],
  ["A41C", -0.956],
  ["G69U U92A U130A", -1.5],
  ["C62G C89U A111C U126C U129C", -4.44],
  ["C11U A18G C72A", -3.7],
  ["C11A C115U G122U", -0.883],
  ["A41G A46U C123U", -2.51],
  ["C8U G19C G42U A91G C123U", -0.955],
  ["C11U G48U", -0.841],
  ["C34U U106C", -3.99],
  ["U21G G93A C114U", -3.41],
  ["A41U G45C G60A C62U", -2.39],
  ["G47U A95C G128C", -4.33],
  ["G107A C114A", -4.24],
  ["C12A G69U", -0.288],
  ["G35A C73G C80A A121G", -6.83],
  ["C28G G63A C73U", -3.78],
  ["A50C C62A", -2.99],
  ["C34A U55C G60C U129G", -4.03],
  ["G57U C101G U106A G122A", -0.938],
  ["C11U U32C C70U C98U C124G", -1.48],
  ["A75U C82G U96A C115G", -3.29],
  ["U78G C89A G117A", -4.25],
  ["G42U U78C C88A U92A G120A", -1.83],
  ["C11U C62U", -0.515],
  ["C56G G58U U59C", 1.36],
  ["G48C C49G C72U C97U U116G", -2.86],
  ["C56G C82G C115G A121U", -0.801],
  ["G47A C76G A90G", -0.228],
  ["C3U C72G", -0.854],
  ["U9G A18U C49A G93A G110C", -5.65],
  ["C11A A27G A41U C49G G61U G120A", -3.04],
  ["A16C G122A", -4.43],
  ["C3G G39C C53G G113U", -5.93],
  ["U7A C11A A26U G63A U112A G127U", -3.63],
  ["G61U C80A", -2.59],
  ["C80G U132C", -4.66],
  ["A43G G44C A46U G63C G120A", -5.64],
  ["A2U A46G C73U U81C", -3.83]
]}
